// provenance: PubChem BioAssay AID2060627

Test system: 156681-154-R-J1-PDC complex spheroid viability;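 note: spheroids exposed to the agents for seven days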
Experiment: Anticancer human tumor 156681-154-R-J1-PDC patient-derived melanoma cell line growth inhibition [CLK]; active = viability on the fitted dose curve at most 10% of control; inactive = the rest
Conditions: second compound 0.316 µM; first compound 0.316 µM
# valid calls are TRUE for active, FALSE for inactive; nothing else

O=C(c1cc(Cc2n[nH]c(=O)c3ccccc23)ccc1F)N1CCN(C(=O)C2CC2)CC1 + CN1CCN(c2cc(C(=O)Nc3cc4cc(-c5cnn(C)c5)ccc4cn3)ccn2)CC1
FALSE
COc1c(OCCCN2CCOCC2)ccc2c3n(c(=NC(=O)c4cnc(N)nc4)nc12)CCN3 + CNC(=O)c1ccc(Nc2nc(OC3CCCC3)c3c(-c4ccc5nc(C)oc5c4)c[nH]c3n2)c(OC)c1
TRUE
CCCS(=O)(=O)Nc1ccc(F)c(C(=O)c2c[nH]c3ncc(-c4ccc(Cl)cc4)cc23)c1F + CNC(=O)c1ccc(Nc2nc(OC3CCCC3)c3c(-c4ccc5nc(C)oc5c4)c[nH]c3n2)c(OC)c1
FALSE
CCN1CCN(Cc2ccc(Nc3ncc(F)c(-c4cc(F)c5nc(C)n(C(C)C)c5c4)n3)nc2)CC1 + CNC(=O)c1ccc(Nc2nc(OC3CCCC3)c3c(-c4ccc5nc(C)oc5c4)c[nH]c3n2)c(OC)c1
FALSE

Now, please, on to the next compound.
**Q:** Please let me know the test result on file for CC(=O)O[C@H]1C(=O)[C@@]2(C)[C@H]([C@H](OC(=O)c3ccccc3)[C@]3(O)C[C@H](OC(=O)[C@H](O)[C@@H](NC(=O)c4ccccc4)c4ccccc4)C(C)=C1C3(C)C)[C@]1(OC(C)=O)CO[C@@H]1C[C@@H]2O + CNC(=O)c1ccc(Nc2nc(OC3CCCC3)c3c(-c4ccc5nc(C)oc5c4)c[nH]c3n2)c(OC)c1 .
**A:** FALSE
